The origin of these recorded values is the supplement of paper PMC4862054.

# Test system: CAL-120
# EXPERIMENT: drug sensitivity score (DSS), CellTox Green (DSS (AUC-based score)); higher = stronger drug effect (viability inhibition or cytotoxicity); extreme values may be limits of the assay
# MEASUREMENT_SETUP: incubation time: 72 h
REPORTED_METRIC: drug sensitivity score
Answer using only a numeral; do not append any unit.

COc1cc(Nc2c(C#N)cnc3cc(OCCCN4CCN(C)CC4)c(OC)cc23)c(Cl)cc1Cl: 0
O=[N+]([O-])c1ccc2c(c1)S(=O)(=O)C=C2: 2.06
Cc1cn(-c2cc(NC(=O)c3ccc(C)c(Nc4nccc(-c5cccnc5)n4)c3)cc(C(F)(F)F)c2)cn1: 0
CC(C)(C)NC(=O)[C@H]1CC[C@H]2[C@@H]3CC[C@H]4NC(=O)C=C[C@]4(C)[C@H]3CC[C@]12C [Finasteride]: 0

Q. Write down the reported drug sensitivity score (system: CAL-120) of "O=C(O)CNC(=O)c1c(O)c2ccccc2n(Cc2ccccc2)c1=O"
A. 0

Q. Lab note: record drug sensitivity score of "CC[C@H](CO)Nc1nc(NCc2ccccc2)c2ncn(C(C)C)c2n1" tested on CAL-120.
A. 0

----------
Measured normalised viability values are reported for all entries that follow.
# System: CAL-120
# EXPERIMENT: normalised viability (% of control), CellTiter-Blue; higher = more viable cells (about 100 = DMSO control)
# MEASUREMENT_SETUP: 10 nM; incubation time: 72 h
Number in %, nothing else.

CC1(C)CCC(c2ccc(Cl)cc2)=C(CN2CCN(c3ccc(C(=O)NS(=O)(=O)c4ccc(N[C@H](CCN5CCOCC5)CSc5ccccc5)c(S(=O)(=O)C(F)(F)F)c4)cc3)CC2)C1: 69.9
COc1cc(Nc2c(C#N)cnc3cc(OCCCN4CCN(C)CC4)c(OC)cc23)c(Cl)cc1Cl: 87.5
Cn1cc(C2=C(c3cn(C4CCN(Cc5ccccn5)CC4)c4ccccc34)C(=O)NC2=O)c2ccccc21: 89.6

Q. Consider the molecule "COc1ccc(S(=O)(=O)Nc2cccnc2Nc2ccc(O)cc2)cc1" . State its measured normalised viability.
A. 81.7

----------
# Tested on: HCC1599
# EXPERIMENT: normalised response (% of control), CellTiter-Glo; higher = more viable cells (100 = DMSO, 0 = benzethonium chloride kill control)
# MEASUREMENT_SETUP: incubation time: 72 h
REPORTED_METRIC: normalised response (%)
# output: bare number, implied unit %

Some solved entries appear below for comparison.
Cc1cc(Nc2nc(N[C@@H](C)c3ncc(F)cn3)ncc2Cl)[nH]n1 [AZD1480] (1 nM): 102
CN(C)C(=N)NC(=N)N [Metformin] (100 nM): 97.6
O=[N+]([O-])c1ccc2c(c1)S(=O)(=O)C=C2 [Stattic] (5 nM): 114
CC1(COc2ccc3c(c2)ncn3-c2ccc3cccc(N4CCC(N)CC4)c3n2)COC1 [Crenolanib] (1 nM): 105
CC(C)(C)c1nc(-c2cccc(NS(=O)(=O)c3c(F)cccc3F)c2F)c(-c2ccnc(N)n2)s1 [Dabrafenib] (0.25 nM): 98.8
CN(Cc1cnc2nc(N)nc(N)c2n1)c1ccc(C(=O)N[C@@H](CCC(=O)O)C(=O)O)cc1 [Methotrexate] (5 nM): 88.1
CC1(C)CCC(c2ccc(Cl)cc2)=C(CN2CCN(c3ccc(C(=O)NS(=O)(=O)c4ccc(N[C@H](CCN5CCOCC5)CSc5ccccc5)c(S(=O)(=O)C(F)(F)F)c4)cc3)CC2)C1 [Navitoclax] (1000 nM): 97.3
C=CCN(/C=C1/C(=O)O[C@H](COC)[C@@]2(C)C1=C(O)C(=O)C1=C2[C@H](OC(C)=O)C[C@]2(C)C(=O)CC[C@@H]12)CC=C [Sonolisib] (1 nM): 116
CC[C@H](CO)Nc1nc(NCc2ccccc2)c2ncn(C(C)C)c2n1 [Seliciclib] (10 nM): 103
O=[N+]([O-])c1ccc2c(c1)S(=O)(=O)C=C2 [Stattic] (50 nM): 110

Q. Name the value of normalised response reported for C=CCN(/C=C1/C(=O)O[C@H](COC)[C@@]2(C)C1=C(O)C(=O)C1=C2[C@H](OC(C)=O)C[C@]2(C)C(=O)CC[C@@H]12)CC=C [Sonolisib] (1000 nM) when tested on HCC1599.
A. 110

Q. Identify measured normalised response obtained with HCC1599 for O=C(CCCCCCC(=O)Nc1ccccc1)NO [Vorinostat] (1 nM) .
A. 94.1
